system: CYP2C9 (Homo sapiens (Human))
Sequence (P11712 whole entry): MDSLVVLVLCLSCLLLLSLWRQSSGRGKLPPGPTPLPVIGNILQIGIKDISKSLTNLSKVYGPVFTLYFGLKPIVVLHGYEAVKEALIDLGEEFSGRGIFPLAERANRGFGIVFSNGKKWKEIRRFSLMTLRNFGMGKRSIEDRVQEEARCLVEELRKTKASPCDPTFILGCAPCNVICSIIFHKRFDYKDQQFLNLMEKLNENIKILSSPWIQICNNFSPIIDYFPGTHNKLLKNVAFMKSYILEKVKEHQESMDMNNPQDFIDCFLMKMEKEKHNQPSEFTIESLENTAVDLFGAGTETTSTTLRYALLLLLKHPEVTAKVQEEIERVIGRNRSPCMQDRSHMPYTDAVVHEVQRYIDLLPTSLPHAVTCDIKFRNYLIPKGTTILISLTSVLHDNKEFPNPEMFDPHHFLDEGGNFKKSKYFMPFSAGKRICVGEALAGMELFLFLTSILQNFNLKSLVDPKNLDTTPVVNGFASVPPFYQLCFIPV
protocol_notes: In vitro inhibitory activity against common CYP450 enzymes: CYP2C9
Format: in vitro ADME
measurement_setup: microsomes, substrate Diclofenac
observed_property: IC50

Fill in: IC50 of CCC(=O)N[C@@H]1CCOc2c(-c3ccc4c(c3)CCC(=O)N4C)cncc21 is ___ > 50 µM

Record request: IC50 value, item CCC(=O)N[C@@H]1CCCc2c(-c3ccc4c(c3)CCC(=O)N4C)cncc21 [Baxdrostat, reference compound] 35.2 µM

I'd like to know its IC50. The molecule in question is CCC(=O)N[C@@H]1CCOc2c(-c3cc4c(cc3F)N(C)C(=O)CC4)cncc21 > 50 µM

* * *

Exercise: state measured IC50 for each of the molecules provided.
system: human CYP11B1 (Homo sapiens (Human), UniProt P15538)
Sequence (P15538 25-503): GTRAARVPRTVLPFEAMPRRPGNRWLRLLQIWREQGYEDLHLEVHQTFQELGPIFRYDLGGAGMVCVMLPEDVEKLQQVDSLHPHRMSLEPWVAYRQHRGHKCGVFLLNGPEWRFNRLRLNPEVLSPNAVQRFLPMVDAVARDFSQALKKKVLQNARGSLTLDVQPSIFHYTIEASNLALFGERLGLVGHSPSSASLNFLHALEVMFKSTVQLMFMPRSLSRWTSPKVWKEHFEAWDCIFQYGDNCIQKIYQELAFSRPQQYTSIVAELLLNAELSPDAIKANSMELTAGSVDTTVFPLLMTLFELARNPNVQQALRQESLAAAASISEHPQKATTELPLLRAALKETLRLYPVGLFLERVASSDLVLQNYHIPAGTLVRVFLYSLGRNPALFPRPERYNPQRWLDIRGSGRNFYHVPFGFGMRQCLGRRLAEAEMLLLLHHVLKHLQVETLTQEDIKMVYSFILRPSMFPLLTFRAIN
protocol_notes: Inhibitory activity against hCYP11B1 in G-402 CYP11B1 high expression stable transformants (cortisol HTRF)
Format: cell-based
measurement_setup: G-402 CYP11B1 cells, 0.2 μM 11-deoxycortisol, 16 hours; read-out: hCYP11B1 Abs IC50
Note: unit µM is implicit; provide only the numeric part.

Recorded IC50 for CCC(=O)N[C@@H]1CCCc2c(-c3ccc4c(c3)CCC(=O)N4C)cncc21 [Baxdrostat, reference compound] , please? 3.37

# query: IC50 of entry CCC(=O)N[C@@H]1CCOc2c(-c3cc4c(cc3F)N(C)C(=O)CC4)cncc21 4.6

# IC50 lookup, item CN(C)C(=O)N[C@@H]1CCOc2c(-c3ccc4c(c3)CCC(=O)N4C)cncc21 5.25

For [2H][C@@]1(NC(=O)CC)CCOc2c(-c3ccc4c(c3)CCC(=O)N4C)cncc21 , what is its reported IC50? 5.36

What value of measured IC50 is listed for [2H][C@@]1(NC(=O)CC)CCOc2c(-c3cc4c(cc3F)N(C)C(=O)CC4)cncc21 ? 4.8

Quick one: IC50 for [2H][C@@]1(NC(=O)N(C)C)CCOc2c(-c3ccc4c(c3)CCC(=O)N4C)cncc21 ? 3.38

What measured IC50 goes with CCC(=O)N[C@@H]1CCOc2c(-c3ccc4c(c3)CCC(=O)N4C)cncc21 ? 4.21

* * *

protocol_notes: Pharmacokinetic test in cynomolgus monkeys (LC/MS)
Format: in vivo, cynomolgus monkeys (Macaca fascicularis)
measurement_setup: both sexes, cynomolgus monkey, plasma, 0.5 mg/kg; 0.5mpk oral
Description: Adult cynomolgus monkeys (Macaca fascicularis) with suitable body weight and age were selected. 1 male and 1 female cynomolgus monkeys were used for experiment. The adaptation period was 1 week. On the day of the experiment, monkeys were individually housed in stainless steel mesh cages for testing. […]
Please provide measured Cmax for the entries that follow.
Reply with the number, then its unit.

What Cmax value was documented for this compound, CCC(=O)N[C@@H]1CCOc2c(-c3ccc4c(c3)CCC(=O)N4C)cncc21 ? 152 ng/mL

# query: Cmax of entry CCC(=O)N[C@@H]1CCCc2c(-c3ccc4c(c3)CCC(=O)N4C)cncc21 [Baxdrostat, reference compound] 56.1 ng/mL

* * *

Exercise: for every item that follows, state its recorded hCYP11B ½ Selectivity Fold.
system: human CYP11B2 (Homo sapiens (Human))
Sequence (P19099 25-503): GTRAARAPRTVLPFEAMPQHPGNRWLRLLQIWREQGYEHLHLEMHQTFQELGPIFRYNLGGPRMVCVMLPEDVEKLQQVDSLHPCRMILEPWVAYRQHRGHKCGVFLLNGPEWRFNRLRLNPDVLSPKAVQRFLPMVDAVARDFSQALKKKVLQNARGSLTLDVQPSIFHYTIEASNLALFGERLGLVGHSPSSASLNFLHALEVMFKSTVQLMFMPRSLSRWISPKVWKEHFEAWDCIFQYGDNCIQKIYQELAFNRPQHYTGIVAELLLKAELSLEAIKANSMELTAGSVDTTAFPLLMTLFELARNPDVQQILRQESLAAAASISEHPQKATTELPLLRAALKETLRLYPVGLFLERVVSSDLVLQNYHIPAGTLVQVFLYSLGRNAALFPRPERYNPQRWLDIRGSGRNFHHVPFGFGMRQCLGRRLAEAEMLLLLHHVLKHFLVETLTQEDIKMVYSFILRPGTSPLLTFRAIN
protocol_notes: Inhibitory activity against hCYP11B2 in G-402 CYP11B2 high expression stable transformants (aldosterone HTRF)
Format: cell-based
measurement_setup: hCYP11B1 IC50 relative to hCYP11B2 IC50
# value in Fold; strip the unit string

Please look up its hCYP11B ½ Selectivity Fold: CCC(=O)N[C@@H]1CCOc2c(-c3cc4c(cc3F)N(C)C(=O)CC4)cncc21 [Example 8] 199

Form field: reported hCYP11B ½ Selectivity Fold of [2H][C@@]1(NC(=O)CC)CCOc2c(-c3cc4c(cc3F)N(C)C(=O)CC4)cncc21 [Example 4] 112.51

Requested read-out: hCYP11B ½ Selectivity Fold. Entry: CCC(=O)N[C@@H]1CCOc2c(-c3ccc4c(c3)CCC(=O)N4C)cncc21 [Example 1] 159.64

Which hCYP11B ½ Selectivity Fold is reported for this molecule? [2H][C@@]1(NC(=O)N(C)C)CCOc2c(-c3ccc4c(c3)CCC(=O)N4C)cncc21 [Example 5] 68.19

Need hCYP11B ½ Selectivity Fold of CN(C)C(=O)N[C@@H]1CCOc2c(-c3ccc4c(c3)CCC(=O)N4C)cncc21 [Example 3] , thanks. 85.95

Entry [2H][C@@]1(NC(=O)CC)CCOc2c(-c3ccc4c(c3)CCC(=O)N4C)cncc21 [Example 2] : reported hCYP11B ½ Selectivity Fold = ? 144.47

Name the recorded hCYP11B ½ Selectivity Fold for CCC(=O)N[C@@H]1CCCc2c(-c3ccc4c(c3)CCC(=O)N4C)cncc21 [Baxdrostat, reference compound] . 119.99

* * *

system: CYP1A2 (Homo sapiens (Human), UniProt P05177)
Sequence (P05177 whole entry): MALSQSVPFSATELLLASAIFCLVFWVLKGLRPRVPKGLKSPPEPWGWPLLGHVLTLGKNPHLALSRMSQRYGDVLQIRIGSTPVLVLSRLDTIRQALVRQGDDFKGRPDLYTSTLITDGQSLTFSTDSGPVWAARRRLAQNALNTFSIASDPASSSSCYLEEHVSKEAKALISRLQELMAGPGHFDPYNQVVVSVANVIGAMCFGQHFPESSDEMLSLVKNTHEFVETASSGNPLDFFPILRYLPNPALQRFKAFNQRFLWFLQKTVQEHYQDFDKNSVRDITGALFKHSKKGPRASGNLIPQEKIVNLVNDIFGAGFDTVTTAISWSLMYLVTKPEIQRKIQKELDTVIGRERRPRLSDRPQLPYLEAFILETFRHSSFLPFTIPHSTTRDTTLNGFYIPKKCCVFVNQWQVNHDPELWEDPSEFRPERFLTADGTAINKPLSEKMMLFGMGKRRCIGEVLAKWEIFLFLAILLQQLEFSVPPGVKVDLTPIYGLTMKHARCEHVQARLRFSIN
protocol_notes: In vitro inhibitory activity against common CYP450 enzymes: CYP1A2
Type: in vitro ADME
measurement_setup: human, microsomes, 10 min
observed_property: IC50

Please report the recorded IC50 for CCC(=O)N[C@@H]1CCOc2c(-c3ccc4c(c3)CCC(=O)N4C)cncc21 [Example 1] . > 50 µM

Which IC50 is reported for this compound? CCC(=O)N[C@@H]1CCOc2c(-c3cc4c(cc3F)N(C)C(=O)CC4)cncc21 [Example 8] > 50 µM

* * *

protocol_notes: Pharmacokinetic test in cynomolgus monkeys (LC/MS)
Format: in vivo, cynomolgus monkeys (Macaca fascicularis)
measurement_setup: both sexes, cynomolgus monkey, plasma, 0.05 mg/kg; 0.05mpk oral; read-out: AUC0-24 h
Exercise: for every item that follows, state its recorded AUC(0-t).
Please give a number only; it is taken to be in ng·h/mL.

For CCC(=O)N[C@@H]1CCCc2c(-c3ccc4c(c3)CCC(=O)N4C)cncc21 [Baxdrostat, reference compound] , what is its reported AUC(0-t)? 90.3

Given [2H][C@@]1(NC(=O)CC)CCOc2c(-c3ccc4c(c3)CCC(=O)N4C)cncc21 , state its recorded AUC(0-t). 165

What value of measured AUC(0-t) is listed for CCC(=O)N[C@@H]1CCOc2c(-c3cc4c(cc3F)N(C)C(=O)CC4)cncc21 ? 332

* * *

protocol_notes: Pharmacokinetic test in cynomolgus monkeys (LC/MS)
Type: in vivo, cynomolgus monkeys (Macaca fascicularis)
measurement_setup: both sexes, cynomolgus monkey, plasma, 0.5 mg/kg; 0.5mpk oral
Please go through the items and note down their half-life.
Dear colleague, please return just the value in h, with no unit written.

Could you tell me which half-life is on file for CCC(=O)N[C@@H]1CCCc2c(-c3ccc4c(c3)CCC(=O)N4C)cncc21 [Baxdrostat, reference compound] ? 9.25

Entry CCC(=O)N[C@@H]1CCOc2c(-c3ccc4c(c3)CCC(=O)N4C)cncc21 has what half-life? 9.09

* * *

Task for the reader: assign each of the following compounds its reported IC50.
system: UniProt P19099
protocol_notes: Inhibitory activity against hCYP11B2 in G-402 CYP11B2 high expression stable transformants (aldosterone HTRF)
measurement_setup: G-402 CYP11B2 cells, 0.2 μM 11-deoxycorticosterone, 16 hours; read-out: hCYP11B2 (AS) Abs IC50
Procedure: 1. Experimental System: G-402 CYP11B2 or CYP11B1 High Expression Stable Transformants The above-mentioned high-expression stable transformants were constructed based on human adrenal leiomyoma cell line G-402. […] Detection: Homogeneous time-resolved fluorescence kit (Cisbio HTRF kit, Cat.64ALDPEG, Cat.62CRTPEG) was used to determine the concentration of aldosterone or cortisol in the supernatant. Analysis: The absolute IC50 (Abs IC50) for each compound was calculated using a four parameter fit.
Express the result in nM but write the number alone.

Please report the recorded IC50 for [2H][C@@]1(NC(=O)N(C)C)CCOc2c(-c3ccc4c(c3)CCC(=O)N4C)cncc21 . 49.6

Given the entry CN(C)C(=O)N[C@@H]1CCOc2c(-c3cc4c(cc3F)N(C)C(=O)CC4)cncc21 , report its measured IC50. 77.3

# get_value(readout='IC50', item= [2H][C@@]1(NC(=O)N(C)C)CCOc2c(-c3cc4c(cc3F)N(C)C(=O)CC4)cncc21 ) 172

So what does the record say about IC50 for CCC(=O)N[C@@H]1CCOc2c(-c3cc4c(cc3F)N(C)C(=O)CC4)cncc21 ? 23.1

I'd like to know its IC50. The compound in question is CCC(=O)N[C@@H]1CCOc2c(-c3ccc4c(c3)CCC(=O)N4C)cncc21 26.4

Which IC50 reading was recorded for the compound [2H][C@@]1(NC(=O)CC)CCOc2c(-c3cc4c(cc3F)N(C)C(=O)CC4)cncc21 ? 42.7

// lookup IC50 for CN(C)C(=O)N[C@@H]1CCOc2c(-c3ccc4c(c3)CCC(=O)N4C)cncc21 61.1

Which value of IC50 has been reported for [2H][C@@]1(NC(=O)CC)CCOc2c(-c3ccc4c(c3)CCC(=O)N4C)cncc21 in the records? 37.1

What does the record list as IC50 for CCC(=O)N[C@@H]1CCCc2c(-c3ccc4c(c3)CCC(=O)N4C)cncc21 [Baxdrostat, reference compound] ? 28.1

Each recorded value in this set is attributed to patent US20250361240A1.
